System: miR-22
test_method_notes: miR-22 induction in HCT116 cells
Type: cell-based
condition_details: RA 10 μM, SAHA 5 μM, butyrate 5 mM, propionate 10 mM, valerate 10 mM
assay_readout: miR-22 induction

compound="CC1=C(/C=C/C(C)=C/C=C/C(C)=C/C(=O)O)C(C)(C)CCC1 [RA, all-trans retinoic acid]" system=miR-22 assay_readout="miR-22 induction" reported_measurement=induced
compound="CC(=O)O [acetate]" system=miR-22 assay_readout="miR-22 induction" reported_measurement="unable to induce miR-22"
compound="CCC(=O)O [propionate]" system=miR-22 assay_readout="miR-22 induction" reported_measurement=induced
compound="O=C(CCCCCCC(=O)Nc1ccccc1)NO [SAHA, suberanilohydroxamic acid]" system=miR-22 assay_readout="miR-22 induction" reported_measurement=induced
compound="CCCCC(=O)O [valerate]" system=miR-22 assay_readout="miR-22 induction" reported_measurement=induced

Kindly review the next compound as well.
Observed miR-22 induction on miR-22, entry O=CO [formate] , equals unable to induce miR-22

All values here come from patent US20220241227A1.
